Each item that follows carries a reported pKd.
Target: T1, ZPT2-14ZF (UniProt O22086 41-117)
T1 sequence: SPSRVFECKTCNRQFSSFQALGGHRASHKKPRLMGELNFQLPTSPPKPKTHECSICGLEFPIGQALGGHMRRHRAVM
Experiment: EMSA; 25 mM HEPES-KOH pH 7.6, 40 mM KCl, 0.1% NP-40, 10 uM ZnCl2, 1 mg/mL BSA, 10% glycerol, 10 ug/mL poly(dI-dC), 1 mM DTT, 0.15 nM probe, 25 min at 20 C
Settings: protein: recombinant; tags: MBP fusion cleaved with TEV protease; untagged; label: 32P end
pKd: −log10 of the molar value.

binder: AGT-5-AGT (dsDNA) DNA 1: CTCGAGAAATTTCCCGGAATTCCAGTGATCCAGTGGCCGGAATTTCCCGGGGGGATCC DNA 2: GGATCCCCCCGGGAAATTCCGGCCACTGGATCACTGGAATTCCGGGAAATTTCTCGAG
pKd: 8.04
//
binder: AGT-10-ACT (dsDNA) DNA 1: CTCGAGAAATTTCCCGGAATTCCAGTGGGAAATTTCACTGGCCGGAATTTCCCGGGGGGATCC DNA 2: GGATCCCCCCGGGAAATTCCGGCCAGTGAAATTTCCCACTGGAATTCCGGGAAATTTCTCGAG
pKd: 7.98
//
binder: ACT-10-AGT (dsDNA) DNA 1: CTCGAGAAATTTCCCGGAATTCCACTGGGAAATTTCAGTGGCCGGAATTTCCCGGGGGGATCC DNA 2: GGATCCCCCCGGGAAATTCCGGCCACTGAAATTTCCCAGTGGAATTCCGGGAAATTTCTCGAG
pKd: 7.94
//
binder: AGT-5-ACT (dsDNA) DNA 1: CTCGAGAAATTTCCCGGAATTCCAGTGATCCACTGGCCGGAATTTCCCGGGGGGATCC DNA 2: GGATCCCCCCGGGAAATTCCGGCCAGTGGATCACTGGAATTCCGGGAAATTTCTCGAG
pKd: 7.66
